- test_summary: PK analysis of 8M2D in transgenic mice (APPSWE), plasma
- assay_context: mouse, in vivo, sc, 250 mg/kg, Day 1, Mean over the 10, 50 and 250 mg/kg doses (N 3), read-out: Cmax, Mean
Square brackets hold non-standard residues; d marks the D form. Peptide text beside a SMILES is read from it.
metric_name: Cmax (µg/mL)
Quick note: give the figure in µg/mL, leave out the unit.

Challenge: Returns the measured Cmax for the input molecule. Input: CC(=O)N[C@H](CC(=O)O)C(=O)N[C@@H](CCC(=O)O)C(=O)N[C@@H](CCC(=O)O)C(=O)N[C@@H](CCC(=O)O)C(=O)N[C@@H](CC(=O)O)C(=O)N[C@@H](CCC(=O)O)C(=O)N[C@@H](CCC(=O)O)C(=O)N[C@@H](CC(C)C)C(N)=O [8M2D, Ac-dEEEDEEL-NH2] (Ac-[dD]EEEDEEL-NH2)
Response given: 111
